The reported measurements were obtained from PubChem BioAssay AID1851.

# measurementTarget: Cytochrome P450 2C19 (Homo sapiens) (UniProt P33261)
# Sequence (P33261 whole entry, looked up): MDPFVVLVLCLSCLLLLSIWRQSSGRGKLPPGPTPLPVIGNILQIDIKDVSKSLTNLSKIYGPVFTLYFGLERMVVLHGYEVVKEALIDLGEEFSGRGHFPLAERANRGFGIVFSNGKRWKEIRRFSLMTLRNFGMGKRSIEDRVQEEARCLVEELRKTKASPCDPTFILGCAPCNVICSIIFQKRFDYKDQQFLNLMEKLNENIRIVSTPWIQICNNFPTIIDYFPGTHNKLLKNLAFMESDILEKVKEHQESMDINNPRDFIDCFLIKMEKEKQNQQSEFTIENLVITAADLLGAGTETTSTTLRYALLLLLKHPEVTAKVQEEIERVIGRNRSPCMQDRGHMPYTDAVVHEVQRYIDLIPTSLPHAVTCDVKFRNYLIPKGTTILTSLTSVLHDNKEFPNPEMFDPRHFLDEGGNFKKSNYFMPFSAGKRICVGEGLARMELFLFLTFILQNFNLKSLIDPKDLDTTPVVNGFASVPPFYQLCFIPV
# test: Cytochrome panel assay with activity outcomes
# recordedConditions: recombinant CYP, pro-luciferin dealkylation, luminescence, p450-cyp2c19; series mostly up to 57.1 µM
About 5,800 (36%) of roughly 16,000 compounds were called active. About 23% were inconclusive and are not listed. Calls come from the whole dose curve; as a rule, active = well fitted curve in the direction sought with a large enough effect; inconclusive = small, poorly fitted or top-dose-only effect, or effect the other way; inactive = no such curve, though single readings can be large or run the other way. The list shows a part of the results.
The reply should name one outcome from yes (1) for active, no (0) for inactive

Please review the entries below; each comes with its answer.
structureNotation	assignedLabel
COc1cc(OC)c2c(c1Cl)O[C@@]1(C2=O)[C@H](C)CC(=O)C[C@@H]1OC	no (0)
C[C@@H](C(=O)NCCF)[C@H]1C[C@]1(C)[C@H](NC(=O)OCc1ccccc1)c1ccccc1	yes (1)
CCOc1ccc(-n2ccnc2SCC(=O)Nc2nnc(CC)s2)cc1	yes (1)
CC(C)CCN1C(=O)c2ccc(-c3nc4ccccc4c(=O)o3)cc2C1=O	yes (1)
COc1ccc(-n2ccnc2SCC(=O)Nc2ccc(OC)cc2OC)cc1	yes (1)

Shifting focus to the compound that follows.
[Q] Please state the recorded outcome for this compound: CCOc1ccc(-n2ccnc2SCC(=O)Nc2nnc(C)s2)cc1
[A] no (0)

----------
# measurementTarget: Cytochrome P450 2C19 (Homo sapiens)
# test: Cytochrome panel assay with activity outcomes
# recordedConditions: recombinant CYP, pro-luciferin dealkylation, luminescence, p450-cyp2c19; series mostly up to 57.1 µM
Screen size: about 16,000 compounds; about 5,800 (36%) were called active. Not shown: some 23% with an inconclusive outcome. Calls come from the whole dose curve; as a rule, active = well fitted curve in the direction sought with a large enough effect; inconclusive = small, poorly fitted or top-dose-only effect, or effect the other way; inactive = no such curve, though single readings can be large or run the other way. Some of the results follow.
The reply should name one outcome from active, inactive

compound	assignedLabel
CC(=O)c1ccc(N2CCC(c3cc(-c4ccc(Cl)cc4)n[nH]3)CC2)c([N+](=O)[O-])c1	active
Cc1ccc(C)c(-n2c(Cc3cc(=O)[nH]c(=O)[nH]3)nnc2SCC(=O)NCC2CCCO2)c1 (stereo not given)	inactive
O=C(c1ccccc1)c1nn(-c2ccccc2)c(=O)cc1C(F)(F)F	active
C=CCSc1nnc(NC(=O)COc2ccc3ccccc3c2)s1	active
COc1ccc(NC(=O)N2CC[C@@]3(CCCN(C(=O)c4cccn4C)C3)C2)cc1	inactive
CN(C)CCN1C(=O)C(O)=C(C(=O)c2cc3ccccc3o2)C1c1ccccn1 (stereo not given)	inactive
Cc1c(C)c2c(c(C)c1O)CC[C@@](C)(C(=O)O)O2	inactive
O=C(COc1ccc2ccccc2c1)Nc1ccc(Cc2ccncc2)cc1	active

[Q] Please state the recorded outcome for this compound: N#C/C(=C/c1cccc(C(F)(F)F)c1)c1nc(CCN2C(=O)c3ccccc3C2=O)cs1
[A] active

[Q] Please state the recorded outcome for this compound: O=C(c1cccc(F)c1)N1CCC2(CC1)CCN(C(c1ccccc1)c1ccccc1)CC2
[A] inactive

----------
# measurementTarget: Cytochrome P450 2C19 (Homo sapiens) (UniProt P33261)
# test: Cytochrome panel assay with activity outcomes
# recordedConditions: recombinant CYP, pro-luciferin dealkylation, luminescence, p450-cyp2c19; series mostly up to 57.1 µM
Out of some 16,000 compounds screened, about 5,800 (36%) were called active. About 23% were inconclusive and are not listed. The call rests on the fitted dose curve; in most records, active means well fitted curve in the direction sought with a large enough effect; inconclusive means small, poorly fitted or top-dose-only effect, or effect the other way; inactive means no such curve, though single readings can be large or run the other way. This is one part of the list.
The reply should name one outcome from YES (active), NO (inactive)

compound	measurementTarget	assignedLabel
CN(C)C(=O)c1ccc(-c2cncnc2NCCc2cnc[nH]2)cc1	Cytochrome P450 2C19 (Homo sapiens) (UniProt P33261)	YES

[Q] Please state the recorded outcome for this compound: N#Cc1c(-c2ccccc2)no[n+]1[O-]
[A] NO

[Q] Please state the recorded outcome for this compound: Cc1ccc(C)c(S(=O)(=O)N2CCC(c3nc4c(nnn4Cc4ccc(F)cc4)c(=O)[nH]3)CC2)c1
[A] YES

[Q] Please state the recorded outcome for this compound: COCCCNCCCCOc1c(Cl)cc(C)cc1Br
[A] NO

----------
# measurementTarget: Cytochrome P450 2C19 (Homo sapiens) (UniProt P33261)
# test: Cytochrome panel assay with activity outcomes
# recordedConditions: recombinant CYP, pro-luciferin dealkylation, luminescence, p450-cyp2c19; series mostly up to 57.1 µM
In all, about 16,000 compounds went through this assay and about 5,800 (36%) were called active. Not shown: some 23% with an inconclusive outcome. Calls follow the shape of the dose curve; as a rule, active = well fitted curve in the direction sought with a large enough effect; inconclusive = small, poorly fitted or top-dose-only effect, or effect the other way; inactive = no such curve, though single readings can be large or run the other way. The list shows a part of the results.
The reply should name one outcome from yes for active, no for inactive

Please review the entries below; each comes with its answer.
compound	assignedLabel
CCCCSC(=S)N(C)C1CCS(=O)(=O)C1 (stereo unspecified)	yes
Cc1noc(C)c1-c1ccc2ncnc(N3CCN(C)CC3)c2c1	no

Shifting focus to the compound that follows.
[Q] Please state the recorded outcome for this compound: FC(F)(F)c1ccccc1-c1cc(NCc2cccs2)ncn1
[A] yes

----------
# measurementTarget: Cytochrome P450 2C19 (Homo sapiens) (UniProt P33261)
# test: Cytochrome panel assay with activity outcomes
# recordedConditions: recombinant CYP, pro-luciferin dealkylation, luminescence, p450-cyp2c19; series mostly up to 57.1 µM
In all, about 16,000 compounds went through this assay and about 5,800 (36%) were called active. About 23% were inconclusive and are not listed. Calls follow the shape of the dose curve; as a rule, active = well fitted curve in the direction sought with a large enough effect; inconclusive = small, poorly fitted or top-dose-only effect, or effect the other way; inactive = no such curve, though single readings can be large or run the other way. This is one part of the list.
The reply should name one outcome from true (1) = active, false (0) = inactive

Please review the entries below; each comes with its answer.
compound	assignedLabel
CCOC(=O)C1=C(O)C(=O)N(Cc2ccccc2)C1	true (1)
Cn1c(=O)c(-c2cc(F)cc(F)c2)nc2cncnc21	false (0)
Cc1ccccc1-c1cc(C(=O)Nc2nc3c(s2)CCCC3)c2ccccc2n1	true (1)
Nc1c2c(nc3ccccc13)CCC[C@H]2O	false (0)

[Q] Please state the recorded outcome for this compound: Cc1cccc(C(=O)N2CCN(c3ccc([N+](=O)[O-])c(NCc4ccco4)c3)CC2)c1
[A] true (1)

[Q] Please state the recorded outcome for this compound: Cc1sc(NC(=O)C2CCCCC2C(=O)O)c(C(N)=O)c1C (stereo not drawn)
[A] false (0)

----------
# measurementTarget: Cytochrome P450 2C19 (Homo sapiens) (UniProt P33261)
# test: Cytochrome panel assay with activity outcomes
# recordedConditions: recombinant CYP, pro-luciferin dealkylation, luminescence, p450-cyp2c19; series mostly up to 57.1 µM
In all, about 16,000 compounds went through this assay and about 5,800 (36%) were called active. Not shown: some 23% with an inconclusive outcome. Calls follow the shape of the dose curve; as a rule, active = well fitted curve in the direction sought with a large enough effect; inconclusive = small, poorly fitted or top-dose-only effect, or effect the other way; inactive = no such curve, though single readings can be large or run the other way. The list shows a part of the results.
The reply should name one outcome from active, inactive

molecule	assignedLabel
c1cncc(-c2cncnc2NC2CCNCC2)c1	inactive
COc1cccc(-c2cncnc2NCCc2c[nH]c3ccc(OC)cc23)c1	active
O=C(c1ccco1)N1CCC2(CCN(Cc3ccccc3)CC2)CC1	inactive

[Q] Please state the recorded outcome for this molecule: COc1ccc(-c2noc(C3CCCN(C(=O)c4ccccc4OC)C3)n2)cc1OC (stereo unspecified)
[A] active

[Q] Please state the recorded outcome for this molecule: COc1ccc2[nH]cc(CCNc3ncncc3-c3cccc(NS(C)(=O)=O)c3)c2c1
[A] active

[Q] Please state the recorded outcome for this molecule: O=C(c1coc(=O)c2ccccc12)N1CCN(Cc2ccccc2)CC1
[A] active

[Q] Please state the recorded outcome for this molecule: COc1ccc(NC(=O)N2CC3(CCN(C(=O)c4csnn4)CC3)C2)cc1
[A] inactive

[Q] Please state the recorded outcome for this molecule: CN(C)c1ccc(-c2noc(C3CCN(S(=O)(=O)c4cccc(C(=O)O)c4)CC3)n2)cc1
[A] inactive

[Q] Please state the recorded outcome for this molecule: COc1cccc(Nc2ncc(C(=O)O)c3ccccc23)c1
[A] inactive

[Q] Please state the recorded outcome for this molecule: COc1ccccc1CN1CC[C@@]2(CCCN(C(=O)c3c(C)noc3C)C2)C1
[A] inactive

[Q] Please state the recorded outcome for this molecule: COc1ccc(Nc2ncc(C(=O)N3CCN(Cc4ccccc4)CC3)c3ccccc23)cc1
[A] active

----------
# measurementTarget: Cytochrome P450 2C19 (Homo sapiens) (UniProt P33261)
# test: Cytochrome panel assay with activity outcomes
# recordedConditions: recombinant CYP, pro-luciferin dealkylation, luminescence, p450-cyp2c19; series mostly up to 57.1 µM
# Procedure: The P450 gene superfamily is involved in the metabolism and clearance of xenobiotics. This assay used various human CYP P450 isozymes to measure the dealkylation of various pro-luciferin substrates to luciferin. The luciferin is then measured by luminescence after the addition of a luciferase detection reagent. […] Inhibitors and some substrates limit the production of luciferin, and decrease measured luminescence. […] 8, Detection, 1 sec, ViewLux luminescent read […]
About 5,800 (36%) of roughly 16,000 compounds were called active. Inconclusive results (about 23%) are left out. The call rests on the fitted dose curve; in most records, active means well fitted curve in the direction sought with a large enough effect; inconclusive means small, poorly fitted or top-dose-only effect, or effect the other way; inactive means no such curve, though single readings can be large or run the other way. This is one part of the list.
The reply should name one outcome from active, inactive

Please review the entries below; each comes with its answer.
compound	assignedLabel
CN(C)CCn1c(=O)n(Cc2ccco2)c(=O)c2c3c(sc21)CCCCC3	active
COc1ccc(-c2nnc(SCc3cccc(C)c3)n2N)cc1	active
O=S(=O)(c1ccccc1)c1cnn2c(C(F)(F)F)cc(-c3ccc(F)cc3)nc12	inactive
CC1CCN(C(=O)C2CCN(S(=O)(=O)c3cccc4nonc34)CC2)CC1	active
S=C(NCc1ccco1)N1CCN(C(c2ccccc2)c2ccccc2)CC1	active
CCn1c(SCc2cccc(C)c2)nnc1-c1ccc(C)cc1	active

[Q] Please state the recorded outcome for this compound: C[C@H]1CN(S(=O)(=O)c2cccc3cnccc23)CCN1
[A] inactive

[Q] Please state the recorded outcome for this compound: O=C(Cn1c(C(F)(F)F)nc2ccccc21)c1ccccc1
[A] active

[Q] Please state the recorded outcome for this compound: NC(=O)Cn1c(=O)n(Cc2ccco2)c(=O)c2c3c(sc21)CCCCC3
[A] active

[Q] Please state the recorded outcome for this compound: CC(=O)Nc1ccc(NC(=O)C2CCN(S(=O)(=O)c3cccc4nonc34)CC2)cc1
[A] inactive

[Q] Please state the recorded outcome for this compound: O=S(=O)(c1cccc2nsnc12)N1CCCC1
[A] active
